Target: HLA-B*58:01
Assay: IEDB peptide-MHC binding, purified MHC/direct/fluorescence; filed as Kd, often an IC50 or EC50 that approximates it; bounds were set here for any values at or beyond the usual limits of such assays
Details: source organism: Marburg virus - Musoke, Kenya, 1980
pKd: −log10 of the molar value.
parameter: pKd

Task: What value of pKd has been recorded for this entry: AEALLADGL
Output: ≤ 4.70

###

Molecular target: HLA-A*02:12
Assay: IEDB peptide-MHC binding, purified MHC/direct/fluorescence; filed as Kd, often an IC50 or EC50 that approximates it; bounds were set here for any values at or beyond the usual limits of such assays
Details: source organism: Cryptosporidium parvum Iowa II
parameter: Kd

Task: Request the reported Kd associated with KQMSQPYAV
Output: ≤ 1 nM

###

Let's look at some sequences and their measured pKd.
Target: HLA-B*39:01
Test: IEDB peptide-MHC binding, purified MHC/competitive/fluorescence; filed as Kd, often an IC50 or EC50 that approximates it; bounds were set here for any values at or beyond the usual limits of such assays
Settings: source organism: Zaire ebolavirus
pKd: −log10 of the molar value.

sequence code | measurement target | reported result
TTIGEWAFW | HLA-B*39:01 | ≤ 4.70

Next:
Task: # get_value(readout='pKd', item= LSDAIFDDL )
Output: ≤ 4.70

###

Molecular target: HLA-A*02:16
Assay: IEDB peptide-MHC binding, purified MHC/direct/fluorescence; filed as Kd, often an IC50 or EC50 that approximates it; bounds were set here for any values at or beyond the usual limits of such assays
Conditions: source organism: Influenza A virus H3N2
parameter: Kd

Task: Notebook entry, HLA-A*02:16 assay: Kd of AVDADDSHF = ?
Output: ≥ 20 µM

###

Biological target: HLA-A*26:01
Assay: IEDB peptide-MHC binding, purified MHC/competitive/fluorescence; filed as Kd, often an IC50 or EC50 that approximates it; bounds were set here for any values at or beyond the usual limits of such assays
Conditions: source organism: Shigella dysenteriae Sd197
pKd: −log10 of the molar value.
parameter: pKd

Task: Fill in: pKd of IEDDEIIWV is ___
Output: ≤ 4.70

###

Biological target: HLA-A*31:01
Experiment: IEDB peptide-MHC binding, purified MHC/competitive/radioactivity; filed as Kd, often an IC50 or EC50 that approximates it; bounds were set here for any values at or beyond the usual limits of such assays
Conditions: source organism: Vaccinia virus WR
parameter: pKd
Quick note: pKd values are minus log10 of concentrations in mol/L.

sequence code | pKd
RTKLMSNIK | 8.35
NSNIIKNKK | 5.90

Task: Can you look up the measured pKd of VFIHMVRCCK for me?
Output: 7.36

Task: Reported pKd, sequence LILSNKLLY : ____
Output: 5.25

Task: Quick check: pKd of GQRCHFIKK ?
Output: 7.21

Task: Record request: pKd value, item IMVASDVCKK
Output: 6.57

###

Molecular target: HLA-A*02:12
Assay: IEDB peptide-MHC binding, purified MHC/direct/fluorescence; filed as Kd, often an IC50 or EC50 that approximates it; bounds were set here for any values at or beyond the usual limits of such assays
Details: source organism: Convict Creek 107 virus
pKd: −log10 of the molar value.
parameter: pKd

Task: pKd for WFLYVSQQI ?
Output: ≤ 4.70
